# study_system: ABCC4 (Homo sapiens, UniProt O15439)
# assay: biochemical
# Assay type: biochemical
# measurement_conditions: 34°C; cAMP-efflux, inside-out vesicles, 20 µM 3H-cAMP, 60 min; read-out: ABCC4 IC50
quantity_name: IC50 (nM)
Response body: numeric value in nM, unit text excluded.

## Task IC50 for Nc1cc(-c2ccncc2)c[nH]c1=O [Amrinone] ?
## Result 1210

====

Ki: recorded values
# study_system: PDE5 (Homo sapiens)
# Construct: purchased Sigma-Aldrich, St. Louis, United States
# assay: Phosphodiesterase assay: inhibition of cGMP hydrolysis by recombinant PDE5
# Type: biochemical
# measurement_conditions: 24°C; Cheng-Prusoff
Quick note: unit goes after the number.

| compound | value |
| --- | --- |
| C[C@@H]1CC(=O)NN=C1c1ccc(NN=C(C#N)C#N)cc1 [Levosimendan] | 37.6 µM |

Would you kindly look at the next entry?
## Task Ki for Nc1cc(-c2ccncc2)c[nH]c1=O [Amrinone] ?
## Result 25.1 µM

====

IC50: recorded values
# study_system: PDE5 (Homo sapiens)
# Construct: purchased Sigma-Aldrich, St. Louis, United States
# assay: Phosphodiesterase assay: inhibition of cGMP hydrolysis by recombinant PDE5
# Format: biochemical
# measurement_conditions: 37°C; 5 µM cGMP, 30 min
Response body: numeric value in µM, unit text excluded.

| smiles_data | quantity_name | unit_of_measure | value |
| --- | --- | --- | --- |
| C[C@@H]1CC(=O)NN=C1c1ccc(NN=C(C#N)C#N)cc1 | IC50 | µM | 155 |

Would you kindly look at the next entry?
## Task IC50 for Nc1cc(-c2ccncc2)c[nH]c1=O ?
## Result 110

====

# study_system: ABCC4 (Homo sapiens, UniProt O15439)
# Sequence (O15439 1-1325): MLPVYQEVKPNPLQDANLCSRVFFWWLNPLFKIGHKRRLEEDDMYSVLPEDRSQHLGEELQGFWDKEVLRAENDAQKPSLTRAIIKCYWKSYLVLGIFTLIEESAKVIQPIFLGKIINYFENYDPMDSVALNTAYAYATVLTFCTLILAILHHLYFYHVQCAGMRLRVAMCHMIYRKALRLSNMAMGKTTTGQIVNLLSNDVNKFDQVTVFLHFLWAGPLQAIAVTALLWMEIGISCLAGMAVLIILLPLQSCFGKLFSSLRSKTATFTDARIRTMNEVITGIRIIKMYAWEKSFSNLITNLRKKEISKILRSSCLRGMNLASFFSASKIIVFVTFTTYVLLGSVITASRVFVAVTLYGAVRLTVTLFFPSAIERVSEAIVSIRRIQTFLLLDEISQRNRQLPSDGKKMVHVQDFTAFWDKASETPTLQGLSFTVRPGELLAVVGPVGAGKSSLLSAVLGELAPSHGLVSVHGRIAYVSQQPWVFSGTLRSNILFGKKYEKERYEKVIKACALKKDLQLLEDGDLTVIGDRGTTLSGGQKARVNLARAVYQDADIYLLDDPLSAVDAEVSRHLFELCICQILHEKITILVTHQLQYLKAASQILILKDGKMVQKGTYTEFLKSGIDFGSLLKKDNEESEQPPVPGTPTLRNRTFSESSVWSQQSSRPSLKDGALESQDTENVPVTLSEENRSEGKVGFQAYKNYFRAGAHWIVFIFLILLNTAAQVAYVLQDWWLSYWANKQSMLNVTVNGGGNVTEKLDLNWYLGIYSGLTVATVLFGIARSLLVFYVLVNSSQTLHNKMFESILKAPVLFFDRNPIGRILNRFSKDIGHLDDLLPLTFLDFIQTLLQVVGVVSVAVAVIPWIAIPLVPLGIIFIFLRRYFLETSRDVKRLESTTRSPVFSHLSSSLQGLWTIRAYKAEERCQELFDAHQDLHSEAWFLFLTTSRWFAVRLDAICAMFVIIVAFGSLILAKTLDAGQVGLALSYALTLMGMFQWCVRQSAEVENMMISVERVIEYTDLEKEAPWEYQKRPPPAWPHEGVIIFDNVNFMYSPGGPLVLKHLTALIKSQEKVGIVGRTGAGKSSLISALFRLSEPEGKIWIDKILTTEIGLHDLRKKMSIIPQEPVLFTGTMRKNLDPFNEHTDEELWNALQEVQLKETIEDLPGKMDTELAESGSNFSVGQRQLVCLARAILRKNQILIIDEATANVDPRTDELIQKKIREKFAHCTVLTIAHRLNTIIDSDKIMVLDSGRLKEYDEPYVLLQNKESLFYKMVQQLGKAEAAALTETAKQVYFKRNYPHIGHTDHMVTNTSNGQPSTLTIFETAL
# assay: biochemical
# Type: biochemical
# measurement_conditions: 34°C; Table 3; read-out: ABCC5 Ki (Table 3)
quantity_name: pKi
A value of pKi is the negative decimal logarithm of a concentration given in moles per litre.

## Task pKi for C[C@@H]1CC(=O)NN=C1c1ccc(NN=C(C#N)C#N)cc1 ?
## Result 5.11
